The reported measurements were obtained from ChEMBL document CHEMBL1649304.

- Method Summary: Drug concentration in uninfected nonimmunosppressed ICR mouse serum at 50 mg/kg, po BID after 4 hrs
- Assay type: ADME, organism-based
- Parameters: dose 50 mg/kg, route oral
- Details: read-out: Drug uptake
Readout Name: concentration at 4 h (ng/mL)
// note: answer is a bare numeric in ng/mL

Reported concentration at 4 h, compound CC[C@@H]([C@H](C)O)n1ncn(-c2ccc(N3CCN(c4ccc(OC[C@@H]5CO[C@@](Cn6cncn6)(c6ccc(F)cc6F)C5)cc4)CC3)cc2)c1=O [POSACONAZOLE] : ____
5300
